These measurements were taken from PubChem BioAssay (NCI).

Test system: SF-539 CNS
TEST DESCRIPTION: NCI-60 one-dose screen, 48 h
TEST CONDITIONS: 10 µM unless noted
Protocol: Cells are grown in 96 well plates and exposed to the test compound for 48 hours. Compounds are tested at a single concentration, which is 10^-5 M for most compounds. The reported endpoint is percent growth (GI% or GIPRCNT), where numbers from 0 - 100% represent growth inhibition, and numbers from -100% - 0 represent cell death. For example, a value of 40 represents 60% growth inhibition. A value of 0 means no net growth occurred over the course of the experiment. […]
About 83,000 compounds went through this panel and 20% of them were active in at least one assay; those are over-represented in the sample as a whole. Calls of active or inactive are those of the source. The calls were made as follows: active = growth percent below 10; inactive = the rest.
Pick from active, inactive when you respond.

## Input Can you look up the reported call for CC(=O)O[C@H](C[C@H](C(C)C)N(C)C(=O)[C@@H](NC(=O)[C@H]1CCCCN1C)C(C)C)c1nc(C(=O)NC2CCC(C(=O)O)CC2)cs1 (some centres not stated) for me?
## Output inactive

## Input Can you look up the reported call for COC(=O)[C@@H](C)C[C@H](Cc1ccccc1)NC(=O)c1nc([C@@H](C[C@H](C(C)C)N(C)C(=O)[C@@H](NC(=O)[C@H]2CC(=O)CCN2C)C(C)C)OC(C)=O)sc1C(C)C for me?
## Output active

## Input Can you look up the reported call for O=C1C2C(C(=O)[N]1[Hg][c]1ccccc1)C1(Cl)C(Cl)=C(Cl)C2(Cl)C1(Cl)Cl (configuration not stated) for me?
## Output inactive

## Input Can you look up the reported call for C[C@]12CC[C@H]3[C@@H](C[C@@H]4SC(Nc5ccccc5)=N[C@@]45CC(O)CC[C@]35C)[C@@H]1CCC2O (some centres not stated) for me?
## Output active

## Input Can you look up the reported call for C=CCn1cc(C=C2C(=O)N(C)C(=O)N(C)C2=O)c2ccccc21 for me?
## Output inactive

## Input Can you look up the reported call for C[C@@]1(CCCCCCCCCc2ccc(O)cc2)C[C@]2(C)OC(=O)C[C@@H]2OO1 for me?
## Output inactive

## Input Can you look up the reported call for O=C([O][Hg][CH2]C1OCCOC1[CH2][Hg][O]C(=O)c1ccccc1)c1ccccc1 (configuration not stated) for me?
## Output inactive

====

growth reference
Tested on: HOP-92 NSCLC
TEST DESCRIPTION: NCI-60 one-dose screen, 48 h (100 = growth as untreated, 0 = no growth, -100 = all killed)
TEST CONDITIONS: 10 µM unless noted
Protocol: Growth inhibition of the HOP-92 human Non-Small Cell Lung tumor cell line is measured as a screen for anti-cancer activity. Cells are grown in 96 well plates and exposed to the test compound for 48 hours. Compounds are tested at a single concentration, which is 10^-5 M for most compounds. The reported endpoint is percent growth (GI% or GIPRCNT), where numbers from 0 - 100% represent growth inhibition, and numbers from -100% - 0 represent cell death. […]
This is part of a sample that, as a whole, favours compounds with a hit. Of some 83,000 tested, about 20% had one in any assay.
Response body: numeric value in %, unit text excluded.

TEST SMILES: COc1ccc(/C=C\c2cc(OC)c(OC)c(OC)c2)cc1OCC(=O)Nc1nc2ccc(F)cc2s1
RECORDED METRIC: growth
RESULT NUMBER: 57.7

## Input // returns reported growth for input O=C1NC(=O)C(=Cc2ccc(OCCCCC3CCCCC3)c(Cl)c2)C(=O)N1
## Output 87.4

## Input // returns reported growth for input O=C(N/N=C/c1ccc(N(CCCl)CCCl)cc1)c1cccc2ccccc12
## Output 55.5

## Input // returns reported growth for input COC(=O)[C@@H](C)C[C@H](Cc1ccccc1)NC(=O)c1csc([C@@H](C[C@H](C(C)C)N(C)C(=O)[C@@H](NC(=O)C23CC(NC(C)=O)(C2)C3)C2CC2)OC(C)=O)n1
## Output 38.5

## Input // returns reported growth for input CN(CCCCN(C)CCOS(C)(=O)=O)CCOS(C)(=O)=O
## Output 86.3

## Input // returns reported growth for input CC(=O)[O][Hg][O]C(C)=O
## Output 142

## Input // returns reported growth for input CC(C)=CCC[C@H](C(=O)O)[C@@H]1CC[C@]2(C)C3=C(CC[C@@]12C)[C@@]1(C)CC[C@H](O)C(C)(C)[C@@H]1CC3
## Output 101

## Input // returns reported growth for input CC(=O)O[C@H]1CC[C@@]2(C)C(=CC[C@H]3[C@@H]4C[C@@H](N5CC5)[C@H](C(C)=O)[C@@]4(C)CC[C@@H]32)C1
## Output 80.7
